System: COLO 205 colon
Assay: NCI-60 one-dose screen, 48 h (100 = growth as untreated, 0 = no growth, -100 = all killed)
Conditions: 10 µM unless noted
The panel holds about 83,000 compounds, 20% with a hit somewhere; the sample as a whole holds those more often. Active and inactive are the calls of the source. The calls were made as follows: active = growth percent below 10; inactive = the rest.

[
  {
    "structure_smiles": "O=C1C(SCc2ccccc2)=C(Cl)CN1c1ccccc1",
    "growth": "130% (inactive)"
  },
  {
    "structure_smiles": "CC(=O)c1cc(C(=O)N2c3ccccc3Sc3ccccc32)n2c1ccc1ccccc12",
    "growth": "40% (inactive)"
  },
  {
    "structure_smiles": "CC(C)(O)c1cncc(-c2ccc3ncc(C#N)c(N4CCc5cc(F)c(Cl)cc54)c3c2)c1",
    "growth": "14.5% (inactive)"
  },
  {
    "structure_smiles": "CN1CCN(CCNc2nc(-c3cccc(NS(=O)(=O)c4cccc5c(N(C)C)cccc45)c3)cs2)CC1",
    "growth": "85.6% (inactive)"
  },
  {
    "structure_smiles": "C#C[C@]1(O)CC[C@H]2[C@@H]3CC=C4c5sc(N6CCN(C)CC6)nc5CC[C@]4(C)[C@H]3CC[C@@]21C",
    "growth": "66.5% (inactive)"
  },
  {
    "structure_smiles": "CC(=O)Nc1ccccc1-c1nc2ccccc2s1",
    "growth": "113% (inactive)"
  },
  {
    "structure_smiles": "O=C(COc1ccc(/C=C2\\C(=O)Nc3cc(Cl)ccc32)cc1)Nc1ccc(Cl)cc1",
    "growth": "81.3% (inactive)"
  },
  {
    "structure_smiles": "O=C(N/N=C/c1cc2ccccc2nc1Cl)c1cc(-c2nc3ccccc3[nH]2)nc2ccccc12",
    "growth": "98.3% (inactive)"
  },
  {
    "structure_smiles": "COC(=O)[C@@H](Cc1c[nH]c2ccccc12)NC(=O)CCCCOc1cc(O)c2c(=O)cc(-c3ccccc3)oc2c1",
    "growth": "90.4% (inactive)"
  }
]

---

The entries below are paired with their reported growth.
Tested on: SR leukemia
Experiment: NCI-60 one-dose screen, 48 h (100 = growth as untreated, 0 = no growth, -100 = all killed)
Details: 10 µM unless noted
Compounds without any hit were thinned out: in the full panel of roughly 83,000, 20% have a hit. Active and inactive are the calls of the source. The calls were made as follows: active = growth percent below 10; inactive = the rest.
readout_type: growth

[
  {
    "molecule": "C#CCN(C)CCCOc1ccc(NC(=O)CCCCCCCCC(=O)NO)cc1Cl",
    "recorded_measurement": "32.7% (inactive)"
  },
  {
    "molecule": "C=CCSC1=NC2C(N(CC)C(=O)N2CC)N1/N=C/C=C/c1ccccc1OC (stereo not given)",
    "recorded_measurement": "16.9% (inactive)"
  },
  {
    "molecule": "O=C1[C@@H]2Cc3c([nH]c4ccccc34)[C@H](c3ccc(Cl)cc3)N2C(=O)CN1C1CCN(Cc2ccccc2)CC1",
    "recorded_measurement": "4.81% (active)"
  },
  {
    "molecule": "Clc1ccc2[nH]cc(-c3nn4cc(-c5cccnc5)nc4s3)c2c1",
    "recorded_measurement": "109% (inactive)"
  },
  {
    "molecule": "CCN1CCN(c2ccc(NC(=O)Nc3ccc4c(ccn4-c4ccnc(C(=O)NC)c4)c3)cc2C(F)(F)F)CC1",
    "recorded_measurement": "-2.78% (active)"
  }
]

---

System: HT29 colon
Experiment: NCI-60 one-dose screen, 48 h (100 = growth as untreated, 0 = no growth, -100 = all killed)
Details: 10 µM unless noted
Description: Growth inhibition of the HT29 human tumor cell line is measured as a screen for anti-cancer activity. Cells are grown in 96 well plates and exposed to the test compound for 48 hours. Compounds are tested at a single concentration, which is 10^-5 M for most compounds. The reported endpoint is percent growth (GI% or GIPRCNT), where numbers from 0 - 100% represent growth inhibition, and numbers from -100% - 0 represent cell death. For example, a value of 40 represents 60% growth inhibition. […]
The panel holds about 83,000 compounds, 20% with a hit somewhere; the sample as a whole holds those more often.
So basically: growth at 70% or higher? That is TRUE. Lower than 70%? That is FALSE.

[
  {
    "compound": "O=C(CCCCCCN1CC(=O)N2[C@@H](c3ccccc3Br)c3[nH]c4ccccc4c3C[C@H]2C1=O)NO",
    "classification": "FALSE"
  },
  {
    "compound": "c1ccc(-c2cn3c(-c4c[nH]c5ccccc45)csc3n2)cc1",
    "classification": "FALSE"
  },
  {
    "compound": "Brc1cc(-c2cc(-c3ccc4c(c3)OC=CO4)[nH]n2)cs1",
    "classification": "TRUE"
  },
  {
    "compound": "Fc1ccc(-c2cn3c(-c4c[nH]c5ccc(Br)cc45)csc3n2)cc1",
    "classification": "TRUE"
  },
  {
    "compound": "COc1ccc(/C=N\\NC(=O)c2cnn(CC(O)c3ccccc3)c2N)cc1OCc1ccc(Cl)cc1 (stereo not drawn)",
    "classification": "TRUE"
  },
  {
    "compound": "O=c1oc2ccc(-c3ccc(F)cc3F)cc2c(=O)n1-c1ccc(Br)cc1F",
    "classification": "TRUE"
  },
  {
    "compound": "CCCNNC(=O)c1ccc(-c2ccc(NC(=O)CCCCCCC(=O)N[C@H](C(=O)N3C[C@H](O)C[C@H]3C(=O)N[C@@H](C)c3ccc(-c4scnc4C)cc3)C(C)(C)C)cc2)cc1",
    "classification": "FALSE"
  },
  {
    "compound": "C/C(=N/N)c1nnn(-c2ccc(Br)cc2)c1C",
    "classification": "TRUE"
  },
  {
    "compound": "NS(=O)(=O)c1ccc(Nc2nc(Nc3ccccc3)nc(N3N=C(c4ccc(Cl)cc4)CC3c3ccc(Cl)cc3)n2)cc1 (stereo not drawn)",
    "classification": "FALSE"
  },
  {
    "compound": "CN1CCC[C@]2(C)[C@H]3CC[C@@H]4[C@@H]5[C@H]6OC[C@@]5(CCC6(C)C)CC[C@@]4(C)[C@]3(C)CC[C@H]2C1(C)C",
    "classification": "FALSE"
  },
  {
    "compound": "COc1ccc(OC)c(CCn2cncc2-c2c[nH]c3ccc(Cl)cc23)c1",
    "classification": "FALSE"
  },
  {
    "compound": "O=C(CCCCCCN1CC(=O)N2[C@@H](c3ccc(Cl)s3)c3[nH]c4ccccc4c3C[C@H]2C1=O)NO",
    "classification": "FALSE"
  },
  {
    "compound": "CCOC(=O)c1c(NCC(=O)Nc2cccc([N+](=O)[O-])c2)sc(C(C)=O)c1C",
    "classification": "FALSE"
  },
  {
    "compound": "Cn1c(SCC(=O)c2ccc(Br)cc2)nc2ccccc2c1=O",
    "classification": "TRUE"
  },
  {
    "compound": "CCN(CC)CCOc1ccc(C(=C(c2ccccc2)C2CCCC2)c2ccc(OCCN(CC)CC)cc2)cc1",
    "classification": "FALSE"
  },
  {
    "compound": "Cc1ccsc1[C@H]1c2[nH]c3ccccc3c2C[C@H]2C(=O)N(CCCCCCC(=O)NO)CC(=O)N12",
    "classification": "TRUE"
  },
  {
    "compound": "CCCCCCN1C=C/C(=C\\C(=O)n2ccc3ccccc32)c2ccccc21",
    "classification": "FALSE"
  }
]

---

System: UACC-257 melanoma
Test: NCI-60 one-dose screen, 48 h (100 = growth as untreated, 0 = no growth, -100 = all killed)
Conditions: 10 µM unless noted
This is part of a sample that, as a whole, favours compounds with a hit. Of some 83,000 tested, about 20% had one in any assay.
So basically: growth at 60% or higher? That is 1.0. Lower than 60%? That is 0.0.

[
  {
    "compound": "CCOC(=O)C1=C(C)NC(C)=C(C(=O)OCc2ccccc2)C1c1cccc(C#N)c1 (stereo not given)",
    "system_name": "UACC-257 melanoma",
    "classification": 0.0
  },
  {
    "compound": "C/C(CC1(O)C(=O)Nc2ccccc21)=N\\O (stereo not given)",
    "system_name": "UACC-257 melanoma",
    "classification": 1.0
  },
  {
    "compound": "COc1ccc(-c2c(C(N)=O)c(N)n(Cc3nc4ccccc4[nH]3)c(=O)c2C#N)c(OC)c1",
    "system_name": "UACC-257 melanoma",
    "classification": 1.0
  },
  {
    "compound": "C#CCN(C)CCCOc1ccc(NC(=O)CCCCCCCCC(=O)NO)cc1Cl",
    "system_name": "UACC-257 melanoma",
    "classification": 0.0
  },
  {
    "compound": "C#C[C@]1(O)CC[C@H]2[C@@H]3CC=C4c5sc(Nc6cc(C)cc(C)c6)nc5CC[C@]4(C)[C@H]3CC[C@@]21C",
    "system_name": "UACC-257 melanoma",
    "classification": 0.0
  }
]

Hello, the source for this data is PubChem BioAssay (NCI), in case you need it.
